Taken from patent US20260193366A1.

Entries and their measured Relative Inhibition of IL-13 induced TARC IC50 follow.
system_tested: T1, hIL-4Rα on cells (human, UniProt P24394 26-825)
T1 sequence: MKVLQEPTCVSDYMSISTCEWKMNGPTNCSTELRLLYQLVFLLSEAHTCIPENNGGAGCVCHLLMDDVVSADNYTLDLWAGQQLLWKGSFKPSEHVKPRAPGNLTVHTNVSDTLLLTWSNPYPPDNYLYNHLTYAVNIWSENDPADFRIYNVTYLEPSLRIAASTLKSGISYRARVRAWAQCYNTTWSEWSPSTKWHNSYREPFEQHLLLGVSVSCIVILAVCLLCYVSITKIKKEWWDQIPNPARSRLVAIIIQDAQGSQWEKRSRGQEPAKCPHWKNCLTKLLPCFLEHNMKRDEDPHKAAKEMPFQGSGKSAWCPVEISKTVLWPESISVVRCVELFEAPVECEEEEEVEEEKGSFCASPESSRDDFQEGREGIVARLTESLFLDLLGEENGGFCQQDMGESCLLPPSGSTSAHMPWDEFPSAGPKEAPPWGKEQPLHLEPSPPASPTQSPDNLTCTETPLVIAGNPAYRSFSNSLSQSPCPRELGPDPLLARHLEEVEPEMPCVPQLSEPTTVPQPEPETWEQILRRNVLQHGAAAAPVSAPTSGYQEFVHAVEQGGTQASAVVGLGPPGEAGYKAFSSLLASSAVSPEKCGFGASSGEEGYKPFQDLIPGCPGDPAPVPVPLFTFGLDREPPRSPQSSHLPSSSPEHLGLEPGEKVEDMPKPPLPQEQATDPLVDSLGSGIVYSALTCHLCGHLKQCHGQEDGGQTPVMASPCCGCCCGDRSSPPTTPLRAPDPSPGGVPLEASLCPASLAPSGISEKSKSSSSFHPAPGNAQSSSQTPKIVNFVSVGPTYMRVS
method_summary: cell-based or functional assay
observed_property: Relative Inhibition of IL-13 induced TARC IC50

binder	measured
Construct 23 (mAb431) (antibody, V domains shown, VH/VL only) VH: EVQLVESGGGLEQPGGSLRLSCAGSGFTFRDFAMTWVRQAPGKGLEWVSSISGGGGSTYYADSVKGRFTISRDNSKNTLYLQMNSLRAEDTAVYYCAKDRLSVTVRPRYYGLDVWGQGTTVTVSS VL: DIVMTQSPLSLPVTPGEPASISCRSSQSVLYSIGKNYVDWYLQKSGQSPQLLIYLGSQRATGVPDRFSGSGSGTDFTLKISRVEAEDVGFYYCMQSLTSPYTFGQGTKLEIK	0.579 relative to dupilumab
Construct 4 (mAb413) (antibody, IgG4, V domains shown, VH/VL only) VH: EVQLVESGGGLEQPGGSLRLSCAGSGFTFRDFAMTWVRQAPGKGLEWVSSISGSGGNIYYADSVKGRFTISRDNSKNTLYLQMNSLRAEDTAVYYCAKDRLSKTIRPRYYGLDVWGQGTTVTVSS VL: DIVMTQSPLSLPVTPGEPASISCTASQSLLYSIGYNYVDWYLQKSGQSPQLLIYLGNNRATGVPDRFSGSGSGTDFTLKISRVEAEDVGFYYCMQALTTPYTFGQGTKLEIK	0.614 relative to dupilumab
Construct 5 (mAb414) (antibody, IgG4, V domains shown, VH/VL only) VH: EVQLVESGGGLEQPGGSLRLSCAGSGFTFRDFAMTWVRQAPGKGLEWVSSISGSGDNIYYADSVKGRFTISRDNSKNTLYLQMNSLRAEDTAVYYCAKDRVSITIRPRYYGLDVWGQGTTVTVSS VL: DIVMTQSPLSLPVTPGEPASISCRSSQSLLYSIGKNYVDWYLQKSGQSPQLLIYLGNKRASGVPDRFSGSGSGTDFTLKISRVEAEDVGFYYCMQSLQTPYVFGQGTKLEIK	0.897 relative to dupilumab
Construct 37 (mAb470) (antibody, IgG4, V domains shown, VH/VL only) VH: EVQLVESGGGLEQPGGSLRLSCAGSGFTFRTYAMTWVRQAPGKGLEWVSSISGGGGNTYYADSVKGRFTISRDNSKNTLYLQMNSLRAEDTAVYYCAKDRLSVTVRPRYYGLDVWGQGTTVTVSS VL: DIVMTQSPLSLPVTPGEPASISCRASQSLLYSVGYNYVDWYLQKSGQSPQLLIYLGNNRASGVPDRFSGSGSGTDFTLKISRVEAEDVGFYYCMQSLTSPYTFGQGTKLEIK	0.868 relative to dupilumab
Construct 46 (mAb501) (antibody, IgG4, V domains shown, VH/VL only) VH: EVQLVESGGGLEQPGGSLRLSCAGSGFTFRDSAMTWVRQAPGKGLEWVSSISGSGDGTYYADSVKGRFTISRDNSKNTLYLQMNSLRAEDTAVYYCAKDRLSIYIRPRYYGLDVWGQGTTVTVSS VL: DIVMTQSPLSLPVTPGEPASISCTSSQSLLYSIGYNYVDWYLQKSGQSPQLLIYLGNKRASGVPDRFSGSGSGTDFTLKISRVEAEDVGFYYCMQALQTPYTFGQGTKLEIK	4.66 relative to dupilumab
